- Test system: KB cells
- Test Method Notes: EGFR driven KB cell proliferation assay, Test (b)
- Assay type: cell-based
- Settings: Homo sapiens, 96 h, EGF 1 ng/ml, incubation for 4 days, MTT
Decision: IC50 beneath 30 nM gives t; IC50 meeting or exceeding 30 nM gives f.

Smiles Record	Category Label
COc1cc2ncnc(Nc3cccc(Cl)c3F)c2cc1OC1CCN(C(=O)c2ccccn2)CC1	t
COc1cc2ncnc(Nc3cccc(Cl)c3F)c2cc1OC1CCN(C(=O)Nc2c(C)noc2C)CC1	t
COc1cc2c(Nc3cccc(Cl)c3F)ncnc2cc1OC1CCN(C(=O)Cc2cc(C)no2)CC1	f
COc1cc2c(Nc3cccc(Cl)c3F)ncnc2cc1OC1CCN(C(=O)c2cccnc2)CC1	f
COc1cc2ncnc(Nc3cccc(Cl)c3F)c2cc1OC1CCN(C(=O)c2ccno2)CC1	t

* * *

- Study Target: EGFR tyrosine kinase enzyme (Homo sapiens)
- Construct: Recombinant intracellular fragments of EGFR, erbB2 and erbB4; made in house; host or cells: baculovirus/Sf21 insect cells
- Sequence (P00533 669-1210 limits assumed): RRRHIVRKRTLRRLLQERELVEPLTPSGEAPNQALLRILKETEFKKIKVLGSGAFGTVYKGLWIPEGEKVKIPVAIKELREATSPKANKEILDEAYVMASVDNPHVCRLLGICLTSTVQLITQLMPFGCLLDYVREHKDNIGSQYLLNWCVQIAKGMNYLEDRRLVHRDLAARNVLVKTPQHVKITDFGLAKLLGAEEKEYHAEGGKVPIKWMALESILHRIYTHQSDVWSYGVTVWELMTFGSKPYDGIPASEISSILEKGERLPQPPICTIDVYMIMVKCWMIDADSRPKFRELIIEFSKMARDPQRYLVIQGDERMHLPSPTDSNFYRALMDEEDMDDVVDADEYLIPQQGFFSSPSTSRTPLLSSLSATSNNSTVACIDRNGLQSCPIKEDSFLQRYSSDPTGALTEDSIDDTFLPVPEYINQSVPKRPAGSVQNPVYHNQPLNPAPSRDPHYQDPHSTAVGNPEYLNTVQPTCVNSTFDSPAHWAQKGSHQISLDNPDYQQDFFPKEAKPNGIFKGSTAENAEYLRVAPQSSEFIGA
- Test Method Notes: Protein tyrosine kinase phosphorylation assay, Test (a)
- Assay type: biochemical
- Settings: ATP at Km concentration; read-out: IC50 (nM) Test (a) (inhibition of tyrosine kinase protein phosphorylation)
Measured Parameter: IC50 (nM)

Compound	Unit Abbrev	Operator Symbol	Measured
COc1cc2ncnc(Nc3cccc(Cl)c3F)c2cc1OC1CCN(C(=O)c2ccccn2)CC1 [Compound 10]	nM	=	14
COc1cc2ncnc(Nc3cccc(Cl)c3F)c2cc1O[C@@H]1CCCN(C(=O)Cc2cccs2)C1 [Compound 60]	nM	<	1
COc1cc2c(Nc3cccc(Cl)c3F)ncnc2cc1OC1CCN(C(=O)Cc2cc(C)no2)CC1 [Compound 33]	nM	=	15
COc1cc2ncnc(Nc3cccc(Cl)c3F)c2cc1OC1CCN(C(=O)c2ccno2)CC1 [Compound 1]	nM	<	1
COc1cc2ncnc(Nc3cccc(Cl)c3F)c2cc1OC1CCN(C(=O)Nc2c(C)noc2C)CC1 [Compound 96]	nM	<	1
COc1cc2c(Nc3cccc(Cl)c3F)ncnc2cc1OC1CCN(C(=O)c2cccnc2)CC1 [Compound 34]	nM	=	43
